Measured EC50, listed per entry for reference.
tested on: Brassica napus L.; test: Pre-emergence herbicidal inhibition assay, Petri dish test, BN; type: in vivo; conditions: Brassica napus, 168 h, stalk, 7 days, read-out: EC50 BN Stalk
Provide the reading as a plain figure in µg/mL.

CC1(C)CON(CCCC(P(=O)(O)O)P(=O)(O)O)C1=O :: 8.2
Cc1n[nH]c(C(F)(F)F)c1CC(P(=O)(O)O)P(=O)(O)O [Compound 12i] :: 21.7
O=P(O)(O)C(Cc1c(C(F)(F)F)n[nH]c1O)P(=O)(O)O [Compound 12e] :: 45.7

Query :: Give its EC50 value. Item: CC1(C)CON(CCCP(=O)(O)O)C1=O
Result :: 39.2

Query :: Give its EC50 value. Item: O=P(O)(O)C(Cc1c(O)noc1C(F)(F)F)P(=O)(O)O [Compound 13e]
Result :: 2.3
